Test: activity coefficient (dimensionless); of the first substance listed, at infinite dilution; xn = mol fraction of the nth substance listed
Details: 363.15 K; 101 kPa; Liquid; Chromatography; x1 = 0
propertyName: activity coefficient
Give bare numbers.

In the examples that follow, each entry is paired with its recorded activity coefficient.
>>> observedmeasurement("CCc1ccccc1 [ethylbenzene] + CCCCCCn1cc[n+](C)c1.O=C([O-])C(F)(F)F")
4.36
>>> observedmeasurement("CCOC(C)=O [ethyl acetate] + CCCCCCn1cc[n+](C)c1.O=C([O-])C(F)(F)F")
3.44

Go through the items and report each one's activity coefficient.
1. Cc1ccc(C)cc1 [1,4-dimethylbenzene] + CCCCCCn1cc[n+](C)c1.O=C([O-])C(F)(F)F
2. C1CCOC1 [tetrahydrofuran] + CCCCCCn1cc[n+](C)c1.O=C([O-])C(F)(F)F

4.43
2.05

###

Assay: activity coefficient (dimensionless); of the first substance listed, at infinite dilution; xn = mol fraction of the nth substance listed
Settings: 323.15 K; 101 kPa; Liquid; Chromatography; x1 = 0
In plain terms, low activity coefficient, meaning strictly below 2, gives YES, and everything else gives NO.

Worked set:
>>> assignedlabel("ClC(Cl)Cl [trichloromethane] + CCCCCCn1cc[n+](C)c1.O=C([O-])C(F)(F)F")
"YES"
>>> assignedlabel("ClCCl [dichloromethane] + CCCCCCn1cc[n+](C)c1.O=C([O-])C(F)(F)F")
"YES"
>>> assignedlabel("CC1CCCCC1 [methylcyclohexane] + CCCCCCn1cc[n+](C)c1.O=C([O-])C(F)(F)F")
"NO"
>>> assignedlabel("CC#N [acetonitrile] + CCCCCCn1cc[n+](C)c1.O=C([O-])C(F)(F)F")
"YES"
>>> assignedlabel("CCCCCCCC [octane] + CCCCCCn1cc[n+](C)c1.O=C([O-])C(F)(F)F")
"NO"
>>> assignedlabel("CCCCCCC [heptane] + CCCCCCn1cc[n+](C)c1.O=C([O-])C(F)(F)F")
"NO"
>>> assignedlabel("CCO [ethanol] + CCCCCCn1cc[n+](C)c1.O=C([O-])C(F)(F)F")
"YES"
>>> assignedlabel("CC(C)=O [acetone] + CCCCCCn1cc[n+](C)c1.O=C([O-])C(F)(F)F")
"YES"
>>> assignedlabel("Cc1ccc(C)cc1 [1,4-dimethylbenzene] + CCCCCCn1cc[n+](C)c1.O=C([O-])C(F)(F)F")
"NO"
>>> assignedlabel("CCOC(C)=O [ethyl acetate] + CCCCCCn1cc[n+](C)c1.O=C([O-])C(F)(F)F")
"NO"

Regarding c1ccccc1 [benzene] + CCCCCCn1cc[n+](C)c1.O=C([O-])C(F)(F)F , kindly confirm whether its activity coefficient is beneath 2. NO

Regarding CCCCCC [hexane] + CCCCCCn1cc[n+](C)c1.O=C([O-])C(F)(F)F , kindly confirm whether its activity coefficient is beneath 2. NO

Regarding CO [methanol] + CCCCCCn1cc[n+](C)c1.O=C([O-])C(F)(F)F , kindly confirm whether its activity coefficient is beneath 2. YES

Regarding Cc1ccccc1 [toluene] + CCCCCCn1cc[n+](C)c1.O=C([O-])C(F)(F)F , kindly confirm whether its activity coefficient is beneath 2. NO

Regarding C=Cc1ccccc1 [styrene] + CCCCCCn1cc[n+](C)c1.O=C([O-])C(F)(F)F , kindly confirm whether its activity coefficient is beneath 2. NO

Regarding Clc1ccccc1 [chlorobenzene] + CCCCCCn1cc[n+](C)c1.O=C([O-])C(F)(F)F , kindly confirm whether its activity coefficient is beneath 2. NO

Regarding CCc1ccccc1 [ethylbenzene] + CCCCCCn1cc[n+](C)c1.O=C([O-])C(F)(F)F , kindly confirm whether its activity coefficient is beneath 2. NO

Regarding ClCCCl [1,2-dichloroethane] + CCCCCCn1cc[n+](C)c1.O=C([O-])C(F)(F)F , kindly confirm whether its activity coefficient is beneath 2. YES
